# ASSAY REMARKS: Half life in hamster intestinal S9 fractions at 2 uM by LC-MS/MS analysis
# Assay type: ADME, Intestine
# CONDITIONS USED: cricetinae, intestinal S9 fractions
Overview of reported half-life at 2 µM across a group of molecules:
OBSERVABLE: half-life at 2 µM

>>> print(df.to_string())
                                   molecule         observable  value_measured
0  CCOC(=O)[C@@H](C)NP(=O)(OC[C@H]1O[C@@H](c2cnc3c(N)ncnn23)[C@](C)(F)[C@@H]1O)Oc1ccccc1 (stereo partly drawn)  half-life at 2 µM           3.2 h
1  CC(C)OC(=O)C(C)(C)NP(=O)(OC[C@H]1O[C@@H](c2ccc3c(N)ncnn23)[C@](C)(F)[C@@H]1O)Oc1ccccc1 (stereo partly drawn)  half-life at 2 µM          1.77 h
2  CCOC(=O)[C@H](C)NP(=O)(OC[C@H]1O[C@@H](c2cnc3c(N)ncnn23)[C@](C)(F)[C@@H]1O)Oc1ccccc1 (stereo partly drawn)  half-life at 2 µM           0.4 h

###

# ASSAY REMARKS: Inhibition of HCV genotype 1b wild-type NS5B RNA dependent RNA polymerase
# Parameters: species or system Hepatitis C virus subtype 1b
pIC50: −log10 of the molar value.
OBSERVABLE: pIC50

In [3]: df
Out[3]:
                                   compound  value_measured
0  C[C@@]1(O)[C@H](O)[C@@H](COP(=O)(O)OP(=O)(O)OP(=O)(O)O)O[C@H]1c1ccc2c(N)ncnn12            6.54
1  C[C@@]1(F)[C@H](O)[C@@H](COP(=O)(O)OP(=O)(O)OP(=O)(O)O)O[C@H]1c1cnc2c(N)ncnn12            6.82
2  C[C@@]1(F)[C@H](O)[C@@H](COP(=O)(O)OP(=O)(O)OP(=O)(O)O)O[C@@]1(C#N)c1ccc2c(N)ncnn12 [GS-441326]            6.38
3  C[C@@]1(F)[C@H](O)[C@@H](COP(=O)(O)OP(=O)(O)OP(=O)(O)O)O[C@H]1c1ccc2c(N)ncnn12            7.34

###

Overview of reported half-life at 2 µM across a group of molecules:
# ASSAY REMARKS: Half life in human intestinal S9 fractions at 2 uM by LC-MS/MS analysis
# Assay type: ADME, Intestine
OBSERVABLE: half-life at 2 µM (h)

In [3]: df
Out[3]:
                                   molecule  reading_unit  readout_relation  value_measured
0  CCOC(=O)[C@H](C)NP(=O)(OC[C@H]1O[C@@H](c2cnc3c(N)ncnn23)[C@](C)(F)[C@@H]1O)Oc1ccccc1 (stereo partly drawn)             h                 =            2.23
1  CC(C)OC(=O)C(C)(C)NP(=O)(OC[C@H]1O[C@@H](c2ccc3c(N)ncnn23)[C@](C)(F)[C@@H]1O)Oc1ccccc1 (stereo partly drawn)             h                 >            13.2
2  CC(C)OC(=O)[C@@H](C)NP(=O)(OC[C@H]1O[C@@H](c2cnc3c(N)ncnn23)[C@](C)(F)[C@@H]1O)Oc1ccccc1 (stereo partly drawn)             h                 >            13.2
3  CCOC(=O)C1(NP(=O)(OC[C@H]2O[C@@H](c3cnc4c(N)ncnn34)[C@](C)(F)[C@@H]2O)Oc2ccccc2)CCC1 (stereo partly drawn)             h                 =            2.92
4  CC(C)OC(=O)[C@H](C)N[P@](=O)(OC[C@H]1O[C@@H](c2cnc3c(N)ncnn23)[C@](C)(F)[C@@H]1O)Oc1ccccc1             h                 =            9.83
5  CC(C)OC(=O)C1(NP(=O)(OC[C@H]2O[C@@H](c3cnc4c(N)ncnn34)[C@](C)(F)[C@@H]2O)Oc2ccccc2)CCC1 (stereo in doubt; 37)             h                 >            13.2
6  CCOC(=O)[C@@H](C)NP(=O)(OC[C@H]1O[C@@H](c2cnc3c(N)ncnn23)[C@](C)(F)[C@@H]1O)Oc1ccccc1 (stereo partly drawn)             h                 >            13.2
7  CCOC(=O)C(C)(C)NP(=O)(OC[C@H]1O[C@@H](c2cnc3c(N)ncnn23)[C@](C)(F)[C@@H]1O)Oc1ccccc1 (stereo partly drawn)             h                 =            2.15

###

# ASSAY REMARKS: Permeability of the compound from apical to basolateral side in human Caco2 cells at 10 uM
# Format: ADME, cell-based, Caco-2
# CONDITIONS USED: Caco-2, read-out: permeability
OBSERVABLE: Papp A→B at 10 µM (×10⁻⁶ cm/s)

                                   compound         observable  value_measured
0  CC(C)OC(=O)[C@H](C)N[P@@](=O)(O)OC[C@H]1O[C@@](C#N)(c2ccc3c(N)ncnn23)[C@](C)(O)[C@@H]1O  Papp A→B at 10 µM             0.2
1  CC(C)OC(=O)C(C)(C)NP(=O)(OC[C@H]1O[C@@H](c2ccc3c(N)ncnn23)[C@](C)(F)[C@@H]1O)Oc1ccccc1 (some centres undefined)  Papp A→B at 10 µM             4.2
2  CC(C)OC(=O)C1(NP(=O)(OC[C@H]2O[C@@H](c3cnc4c(N)ncnn34)[C@](C)(F)[C@@H]2O)Oc2ccccc2)CCC1 (stereo in doubt; 37)  Papp A→B at 10 µM             2.4
3  CC(C)OC(=O)[C@H](C)N[P@](=O)(OC[C@H]1O[C@@H](c2cnc3c(N)ncnn23)[C@](C)(F)[C@@H]1O)Oc1ccccc1  Papp A→B at 10 µM            0.94

###

Overview of reported solubility across a group of compounds:
# ASSAY REMARKS: Solubility of the compound in pH 7.4 solution
# Format: physicochemical
OBSERVABLE: solubility (µg/mL)

In [3]: df
Out[3]:
                                   compound  observable  value_measured
0  CC(C)OC(=O)C(C)(C)NP(=O)(OC[C@H]1O[C@@H](c2ccc3c(N)ncnn23)[C@](C)(F)[C@@H]1O)Oc1ccccc1 (some centres undefined)  solubility             657
1  CC(C)OC(=O)C1(NP(=O)(OC[C@H]2O[C@@H](c3cnc4c(N)ncnn34)[C@](C)(F)[C@@H]2O)Oc2ccccc2)CCC1 (stereo in doubt; 37)  solubility             538
2  CC(C)OC(=O)[C@H](C)N[P@](=O)(OC[C@H]1O[C@@H](c2cnc3c(N)ncnn23)[C@](C)(F)[C@@H]1O)Oc1ccccc1  solubility             642
3  CC(C)OC(=O)[C@H](C)N[P@@](=O)(O)OC[C@H]1O[C@@](C#N)(c2ccc3c(N)ncnn23)[C@](C)(O)[C@@H]1O  solubility             306

###

# ASSAY REMARKS: Permeability of the compound from apical to basolateral side in human Caco2 cells at 10 uM
# Type: ADME, cell-based, Caco-2
# CONDITIONS USED: caco-2, 10 µM, 10 µM
OBSERVABLE: permeability (×10⁻⁶ cm/s)

                                   molecule    observable  value_measured
0  CC(C)OC(=O)C1(NP(=O)(OC[C@H]2O[C@@H](c3cnc4c(N)ncnn34)[C@](C)(F)[C@@H]2O)Oc2ccccc2)CCC1 (stereo in doubt; 53)  permeability             1.7
1  CC(C)OC(=O)C1(NP(=O)(OC[C@H]2O[C@@H](c3cnc4c(N)ncnn34)[C@](C)(F)[C@@H]2O)Oc2ccccc2)CCC1 (stereo in doubt; 54)  permeability             1.3

###

# ASSAY REMARKS: Prodrug activation in Syrian golden hamster liver assessed as triphosphate metabolite formation at 5 mg equivalents/kg, po after 1 hr by LC-MS/MS analysis
# Format: ADME, organism-based, Mesocricetus auratus
# CONDITIONS USED: in vivo
Overview of reported liver triphosphate concentration across a group of compounds:
OBSERVABLE: liver triphosphate concentration (µM)

                                   compound                        observable  reading_unit  value_measured
0  CC(C)OC(=O)C1(NP(=O)(OC[C@H]2O[C@@H](c3cnc4c(N)ncnn34)[C@](C)(F)[C@@H]2O)Oc2ccccc2)CCC1 (stereo in doubt; 37)  liver triphosphate concentration            µM            1.89
1  CC(C)OC(=O)[C@H](C)N[P@](=O)(OC[C@H]1O[C@@H](c2cnc3c(N)ncnn23)[C@](C)(F)[C@@H]1O)Oc1ccccc1  liver triphosphate concentration            µM            0.34
2  CC(C)OC(=O)[C@H](C)N[P@@](=O)(O)OC[C@H]1O[C@@](C#N)(c2ccc3c(N)ncnn23)[C@](C)(O)[C@@H]1O  liver triphosphate concentration            µM            0.53
3  CC(C)OC(=O)C(C)(C)NP(=O)(OC[C@H]1O[C@@H](c2ccc3c(N)ncnn23)[C@](C)(F)[C@@H]1O)Oc1ccccc1 (some centres undefined)  liver triphosphate concentration            µM            1.29

Each recorded value in this set is attributed to ChEMBL document CHEMBL4007470.
